METHOD_NOTES: Water solubility of freeze-dried compounds in water (observation and HPLC)
Residues, ends and D or L forms follow the SMILES beside them. *: point of attachment. Doxorubicin(3'-N) = COc1cccc2c1C(=O)c1c(O)c3c(c(O)c1C2=O)C[C@@](O)(C(=O)CO)C[C@@H]3O[C@H]1C[C@H](N*)[C@H](O)[C@H](C)O1; Hexanoyl(6-maleimido) = O=C1C=CC(=O)N1CCCCCC(=O)*
PARAMETER: solubility

{"COMPOUND": "COc1cccc2c1C(=O)c1c(O)c3c(c(O)c1C2=O)C[C@@](O)(C(=O)CO)C[C@@H]3O[C@H]1C[C@H](NC(=O)[C@H](CC(C)C)NC(=O)[C@H](CC(N)=O)NC(=O)[C@H](C)NC(=O)[C@H](C)NC(=O)[C@H](CCC(N)=O)NC(=O)CCCCCN2C(=O)C=CC2=O)[C@H](O)[C@H](C)O1 [QHL-134] ({Hexanoyl(6-maleimido)}-QAANL-{Doxorubicin(3'-N)})", "PARAMETER": "solubility", "OBS_VALUE": "> 5000 µg/mL"}

Continue with the next compound.
// fetch solubility given entry COc1cccc2c1C(=O)c1c(O)c3c(c(O)c1C2=O)C[C@@](O)(C(=O)CO)C[C@@H]3O[C@H]1C[C@H](NC(=O)[C@H](CC(C)C)NC(=O)[C@H](CC(N)=O)NC(=O)[C@H](C)NC(=O)[C@H](C)NC(=O)CCCCCN2C(=O)C=CC2=O)[C@H](O)[C@H](C)O1 [C3 EMC-AANL-DOX]
< 5000 µg/mL
